Provide the recorded B-score for the entries that follow.
- Target or system: ATP-sensitive inward rectifier potassium channel 1 (Homo sapiens)
- Assay text: ROMK potassium channel modulators, primary screen, cell-based, thallium flux, MLSMR library (AID 1918)
- Condition info: Tet-inducible ROMK, thallium flux fluorescence; at 10 µM; actives lie on both sides
In all, about 130,000 compounds went through this assay and about 2,500 (1.9%) were called active. The entries come from a sample that favours actives as a whole.

Cc1noc(C)c1C(=O)OCC(=O)/C=C1\N(C)c2ccccc2C1(C)C = -0.053 (inactive)
Cc1ccc(/C=C(\C#N)C(=O)Nc2cccc3ncccc23)o1 = -0.963 (inactive)
CN1/C(=C\C(=O)c2cccnc2Cl)C(C)(C)c2ccccc21 = 0.168 (inactive)
CCn1cc(CN2CCCC(CNS(=O)(=O)Cc3ccccc3)C2)cn1 (centres undefined) = -1.12 (inactive)
CCO/C=C1\C(=O)N(c2ccc(OCC)cc2)C(=O)c2ccccc21 = -0.0391 (inactive)

Below are some compounds; for each one, tell me its B-score.
1. COC(=O)Cn1cc(C(=O)c2cccs2)c2ccccc21
2. O=C(Nc1ccccc1F)c1ccccc1-c1ccc(C(F)(F)F)cc1
3. COc1ccccc1C(=O)N1CC2(C)CC1CC(C)(C)C2 (centres undefined)
4. Cc1nn(CC(=O)Nc2ccc3c(c2)OCO3)c(C)c1[N+](=O)[O-]
5. COc1cccc(NC(=O)CC2C(=O)NCCN2C(=S)Nc2ccc(F)cc2)c1 (centres undefined)

## Output
1: 0.201 (inactive); 2: 0.0696 (inactive); 3: -0.0792 (inactive); 4: 0.634 (inactive); 5: -0.0401 (inactive)

Look at each compound and report its B-score.
1. Cc1cccc(NC(=S)Nc2ccc(Cl)c(Cl)c2)c1
2. Cc1cccc2cc(C#N)c(N3CCCC3)nc12
3. O=C(Nc1cccc(Cl)c1N1CCOCC1)c1ccc2c(c1)OCCO2
4. Cc1nnnn1/C(=C\c1ccccc1)C(=O)OCC(=O)N1CC2(C)CC1CC(C)(C)C2 (centres undefined)
5. O=C(NNC(=S)NCc1ccco1)C(c1ccccc1)c1ccccc1
6. COc1cccc(CC2(CO)CCCN(CC3=Cc4cc(OC)ccc4OC3)C2)c1 (centres undefined)

## Output
1: 0.116 (inactive); 2: -0.0822 (inactive); 3: -0.937 (inactive); 4: -5.08 (active); 5: -0.0839 (inactive); 6: -0.447 (inactive)

Please give B-score, item by item, for the list that follows.
1. Cc1cc(C)c(C(N)=O)c(Cl)n1
2. COc1ccccc1NC(=O)C[n+]1ccccc1
3. COc1ccc(Br)cc1C(=O)Nc1cccc(C)c1C
4. Cc1ccc2c(c1)C(O)(CC(=O)c1cccc(-n3cccc3)c1)C(=O)N2 (centres undefined)
5. COC(=O)Cc1nc2ccccc2[nH]1
6. COC(=O)C[n+]1cccc2ccccc21
7. O=c1[nH]n2c(-c3ccccc3)nc(O)c2c2ccccc12
8. COC(=O)N/N=C/c1cn(CCCOc2ccc(C)cc2)c2ccccc12

## Output
["0.133 (inactive)", "-0.558 (inactive)", "-2.34 (active)", "0.00843 (inactive)", "-0.0215 (inactive)", "-4.33 (active)", "2.45 (inactive)", "0.506 (inactive)"]

---

- Target or system: ATP-sensitive inward rectifier potassium channel 1 (Homo sapiens) (UniProt P48048)
- Sequence (P48048 whole entry, looked up): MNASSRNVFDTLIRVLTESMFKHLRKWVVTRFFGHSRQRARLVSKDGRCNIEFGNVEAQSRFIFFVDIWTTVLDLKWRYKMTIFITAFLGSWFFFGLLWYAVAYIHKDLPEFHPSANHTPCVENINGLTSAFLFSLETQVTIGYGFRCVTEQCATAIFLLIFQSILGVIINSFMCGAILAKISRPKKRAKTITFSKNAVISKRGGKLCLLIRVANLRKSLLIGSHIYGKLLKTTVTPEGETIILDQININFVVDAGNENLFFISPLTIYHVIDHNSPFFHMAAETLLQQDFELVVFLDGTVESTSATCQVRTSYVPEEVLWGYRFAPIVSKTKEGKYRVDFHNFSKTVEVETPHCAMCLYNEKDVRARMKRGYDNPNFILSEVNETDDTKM
- Assay text: ROMK potassium channel modulators, primary screen, cell-based, thallium flux, MLSMR library (AID 1918)
- Condition info: Tet-inducible ROMK, thallium flux fluorescence; at 10 µM; actives lie on both sides
Hit rate of the full screen: of about 130,000 compounds, about 2,500 (1.9%) were called active.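 Rule for the calls: active = signal ratio slope over the read window, or its plate-corrected B-score, at least 3 SD from the plate mean, either direction; inactive = the rest.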 Shown is part of a subset that was picked to be rich in actives.
Log the outcome using a class from 1 (yes) = active, 0 (no) = inactive

Cc1ccc(C)c(NC(=O)CCC(=O)N/N=C2/CC(=O)CC(C)(C)C2)c1 = 0 (no)
Cc1cccc2cc(CN(C(=O)c3cccs3)c3ccccc3)c(=O)[nH]c12 = 0 (no)
COc1cc2c(cc1OC)C(C(C)C)=NC(C)(C)C2 = 0 (no)

## Input Fill in: this test's call for COc1ccc(C2=CC(c3cccc(OC)c3)n3nnnc3N2)cc1 (stereo unspecified) is ___
## Output 1 (yes)

## Input Give the logged outcome of this assay for the following compound: `COc1cc(/C=C/C(=O)OCC(=O)NC(=O)NCc2ccccc2)ccc1OCC#N`
## Output 0 (no)

## Input Tell me the assay call for `Cc1cccc2cc(CN(Cc3nnnn3Cc3ccccc3)C3CCCC3)c(=O)[nH]c12` please.
## Output 1 (yes)

## Input Test call, this compound: O=C(CCC1CCCN(C(=O)Cc2ccc(F)cc2)C1)N1CCN(c2ccccn2)CC1 (stereo unspecified)
## Output 0 (no)

## Input Per the assay record, what outcome was assigned to `Cc1ccc(S(=O)(=O)NCC(=O)N2CCN(c3ccccn3)CC2)cc1` ?
## Output 0 (no)

## Input Called result for `Cc1ccccc1-n1nc(SCC(=O)O)sc1=S`
## Output 0 (no)
